Data origin: the supplement of paper PMC4862054

Test system: CAL-51
assay-text: drug sensitivity score (DSS), CellTiter-Glo (DSS (AUC-based score)); higher = stronger drug effect (viability inhibition or cytotoxicity); extreme values may be limits of the assay
condition-description: incubation time: 72 h
Kindly state drug sensitivity score for each of the entries shown.
Answers are plain numbers.

Worked cases, answers included:
O=C(c1ccc(C(=O)N2CCC(N3CCCC3)CC2)c(Nc2ccccc2)c1)N1CCC(N2CCCC2)CC1 ... 0
Cc1c2oc3c(C)ccc(C(=O)N[C@@H]4C(=O)N[C@H](C(C)C)C(=O)N5CCC[C@H]5C(=O)N(C)CC(=O)N(C)[C@@H](C(C)C)C(=O)O[C@@H]4C)c3nc-2c(C(=O)N[C@@H]2C(=O)N[C@H](C(C)C)C(=O)N3CCC[C@H]3C(=O)N(C)CC(=O)N(C)[C@@H](C(C)C)C(=O)O[C@@H]2C)c(N)c1=O ... 26.4
Nc1ccn([C@@H]2O[C@H](CO)[C@@H](O)[C@@H]2O)c(=O)n1 ... 13.4
COc1cccc2cc(-c3nc([C@H]4CC[C@H](C(=O)O)CC4)n4ncnc(N)c34)[nH]c12 ... 4.69

The recorded drug sensitivity score for `CCN1CCN(c2ccc(Nc3cc(N(C)C(=O)Nc4c(Cl)c(OC)cc(OC)c4Cl)ncn3)cc2)CC1` is 0

###

System: BT-474
condition-description: 72 h
For each record, write down the corresponding EC50, CellTiter-Glo.

C=CC[C@@H]1/C=C(\C)C[C@H](C)C[C@H](OC)[C@H]2O[C@@](O)(C(=O)C(=O)N3CCCC[C@H]3C(=O)O[C@H](/C(C)=C/[C@@H]3CC[C@@H](O)[C@H](OC)C3)[C@H](C)[C@@H](O)CC1=O)[C@H](C)C[C@@H]2OC ... > 10000 nM
COc1cc(Nc2ncc3c(n2)-c2ccc(Cl)cc2C(c2c(F)cccc2OC)=NC3)ccc1C(=O)O ... 76.1 nM
COc1cccc2c1C(=O)c1c(O)c3c(c(O)c1C2=O)C[C@@](O)(C(=O)CO)C[C@@H]3O[C@H]1C[C@H](N)[C@H](O)[C@H](C)O1 ... 167 nM
CN1CC[C@H](c2c(O)cc(O)c3c(=O)cc(-c4ccccc4Cl)oc23)[C@H](O)C1 ... 183 nM

The recorded EC50, CellTiter-Glo for entry `COc1cccc2cc(-c3nc([C@H]4CC[C@H](C(=O)O)CC4)n4ncnc(N)c34)[nH]c12` equals 2920 nM

###

Consider the following compounds; for each one, report its normalised viability.
Tested on: SK-BR-3
assay-text: normalised viability (% of control), CellTiter-Blue; higher = more viable cells (about 100 = DMSO control)
condition-description: 1000 nM; incubation time: 72 h
One number for each entry, in %.

Before answering, review these 3 worked examples.
S=c1[nH]cnc2nc[nH]c12 [Mercaptopurine] ... 95.6
Clc1ccc(C(c2ccccc2Cl)C(Cl)Cl)cc1 (configuration not stated) [Mitotane] ... 104
COc1cccc2cc(-c3nc([C@H]4CC[C@H](C(=O)O)CC4)n4ncnc(N)c34)[nH]c12 [OSI-027] ... 19

Kindly give each listed record's normalised viability.
1. C[C@]1(c2nc3c(C(N)=O)cccc3[nH]2)CCCN1 [Veliparib]
2. CN(C)C/C=C/C(=O)Nc1cc2c(Nc3ccc(F)c(Cl)c3)ncnc2cc1O[C@H]1CCOC1 [Afatinib]
3. COc1cccc2c1C(=O)c1c(O)c3c(c(O)c1C2=O)C[C@@](O)(C(=O)CO)C[C@@H]3O[C@H]1C[C@H](N)[C@H](O)[C@H](C)O1 [Doxorubicin]
4. OC[C@H]1O[C@@H](n2cnc3c2N=CNC[C@H]3O)C[C@@H]1O [Pentostatin]

[93.6, 19.3, 8.28, 104]
